# TARGET DESC: recombinant cynomolgus monkey CD3ε/δ heterodimer (cynomolgus monkey) (UniProt Q95LI5)
# Sequence (Q95LI5 22-117, stated change not applied, chain 1 of 2): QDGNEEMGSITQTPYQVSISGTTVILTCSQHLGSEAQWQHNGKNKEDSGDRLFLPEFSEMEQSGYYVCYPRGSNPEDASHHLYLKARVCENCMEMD
# Sequence (Q95LI8 22-105, stated change not applied, chain 2 of 2, further chain): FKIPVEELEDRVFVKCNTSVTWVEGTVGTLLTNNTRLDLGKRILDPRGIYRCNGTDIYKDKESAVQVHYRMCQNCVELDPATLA
# PROTOCOL SUMMARY: ELISA, coated CD3ε/δ
Reported Absorbance (450 nm) values for a set of binders
No unit in the answer, please; the number alone is enough.

B11 (antibody, human IgG1, lambda, L234A L235A, V domains shown) VH: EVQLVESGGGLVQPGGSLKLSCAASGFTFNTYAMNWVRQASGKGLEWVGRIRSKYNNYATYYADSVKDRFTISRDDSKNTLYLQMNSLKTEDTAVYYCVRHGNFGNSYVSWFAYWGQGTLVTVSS VL: QAVVTQEPSLTVSPGGTVTLTCRSSTGAVTTSNYANWVQQKPGQAPRTLIGGTNKRAPWTPARFSGSLLGGKAALTLSGAQPEDEAEYYCALWYSNLWVFGGGTKLTVLG: 0.107
A15 (antibody, human IgG1, lambda, L234A L235A, V domains shown) VH: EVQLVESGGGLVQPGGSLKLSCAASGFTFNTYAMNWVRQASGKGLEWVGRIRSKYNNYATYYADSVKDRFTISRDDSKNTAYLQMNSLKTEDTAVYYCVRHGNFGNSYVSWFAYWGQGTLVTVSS VL: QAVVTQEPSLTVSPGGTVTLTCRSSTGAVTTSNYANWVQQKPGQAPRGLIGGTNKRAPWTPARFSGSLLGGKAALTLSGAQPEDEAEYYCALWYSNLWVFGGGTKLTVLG: 2.86

Switching to the query record.
Quick check: Absorbance (450 nm) of G11 (antibody, human IgG1, lambda, L234A L235A, V domains shown) VH: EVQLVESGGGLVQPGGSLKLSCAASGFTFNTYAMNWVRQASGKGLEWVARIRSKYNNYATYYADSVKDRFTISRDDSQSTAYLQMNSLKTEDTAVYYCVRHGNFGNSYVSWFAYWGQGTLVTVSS VL: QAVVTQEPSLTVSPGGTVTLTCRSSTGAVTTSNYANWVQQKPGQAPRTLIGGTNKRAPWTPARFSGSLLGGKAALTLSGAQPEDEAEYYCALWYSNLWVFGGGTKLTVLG ?
0.08
